FYI, the data here is from ChEMBL document CHEMBL5303304.

system: Fibroblast; experiment: Incucyte cell viability with human fibroblast; assay type: toxicity, cell-based; settings: 24 h, 10 µM, compound concentration 10 uM, replicate number 1; also: unitless GR value; below 1 slowed growth and below 0 cell loss
Quantity measured: Growth Rate
Respond using a number only.

Prompt: What does the record list as Growth Rate for CSc1nc2c(c(=O)n(C)c(=O)n2C)n1C ?
Completion: 0.71

Prompt: What does the record list as Growth Rate for CC[C@@H](Nc1c(C#N)c(-c2ccc(-c3cccc(C)c3F)cc2)nc2cnccc12)C(=O)O [BAY-091] ?
Completion: 0.88

Prompt: What does the record list as Growth Rate for COc1cc(Cl)c(C(=O)N[C@@H](CN[C@H]2CC[C@@H](N)CC2)Cc2ccc(C#N)cc2)cc1-c1ccc(CN[C@H](C)c2ccc(C)cc2)o1 ?
Completion: -0.72

Prompt: What does the record list as Growth Rate for O=C(O)CCCCN(CCc1cc(F)ccc1OCc1ccc(-c2ccc(C(F)(F)F)cc2)cc1)Cc1ccc(C(=O)O)cc1 ?
Completion: 0.96

Prompt: What does the record list as Growth Rate for CN1CCC(F)(Cn2cnc(-c3ccc(F)cn3)c2-c2ccnc3[nH]ccc23)CC1 ?
Completion: 0.81

Prompt: What does the record list as Growth Rate for O=C(NCc1cccnc1OCC(F)(F)F)c1cncc(-c2ccc(Cl)cc2)c1 ?
Completion: 0.21

Prompt: What does the record list as Growth Rate for CN(C)CC#Cc1ccc2[nH]c3c(c2c1)-c1nc(N)ncc1CCC3 ?
Completion: 0.2

Prompt: What does the record list as Growth Rate for O=C1CCCc2[nH]c(-c3ccnc(NCC4CC4)c3)c(Nc3ccccc3)c21 ?
Completion: 0.45

Prompt: What does the record list as Growth Rate for CN(C)c1cc2c(Nc3ccc4c(cnn4Cc4ccccc4)c3)ncnc2cn1 [GW282974X] ?
Completion: 0.77

Prompt: What does the record list as Growth Rate for COc1ccccc1Nc1nc(-c2nn(Cc3c(F)cc(OCCCO)cc3F)c3ccccc23)ncc1OC ?
Completion: 0.77

Prompt: What does the record list as Growth Rate for O=c1cccc2n1C[C@@H]1CNC[C@H]2C1 [CYTISINICLINE] ?
Completion: 0.51

Prompt: What does the record list as Growth Rate for O=C1CSC(=O)N1C(CCc1ccncc1)COc1ccc(-c2cccc([N+](=O)[O-])c2)cc1 (stereo not drawn) ?
Completion: 0.45

Prompt: What does the record list as Growth Rate for O=C(Nc1c[nH]nc1-c1nc2cc(CN3CCOCC3)ccc2[nH]1)NC1CC1 [AT-9283] ?
Completion: 0.09

Prompt: What does the record list as Growth Rate for CCOC(=O)Nc1ccc2c(c1)N(C(=O)CN(CC)CC)c1ccccc1CC2 ?
Completion: 0.76

Prompt: What does the record list as Growth Rate for COc1ccc(F)c(F)c1C(=O)c1cnc(NC2CCN(S(C)(=O)=O)CC2)nc1N [RG-547] ?
Completion: 0.65

Prompt: What does the record list as Growth Rate for C[C@H](CCOc1cccc(CC(=O)O)c1)N(Cc1cccc(C(F)(F)F)c1Cl)CC(c1ccccc1)c1ccccc1.Cl ?
Completion: 0.64

Prompt: What does the record list as Growth Rate for COc1ccc2c(O[C@@H]3C[C@H]4C(=O)N[C@]5(C(=O)NS(=O)(=O)C6(C)CC6)CC5/C=C\CCCCC[C@H](NC(=O)c5ccn(C)n5)C(=O)N4C3)cc(OC(C)C)nc2c1C (stereo partly drawn) ?
Completion: 0.9

Prompt: What does the record list as Growth Rate for O=C(CNCc1cc2ccccc2[nH]1)N[C@H]1CC[C@@H](c2nc3ccccc3[nH]2)CC1 ?
Completion: 0.78
